Sourced from ChEMBL document CHEMBL1152160

test system: Plasmodium falciparum; experiment: Antimalarial activity after 72hrs against chloroquine-sensitive Plasmodium falciparum 3D7 infected erythrocytes; format: functional, organism-based; conditions: 3D7, 72 h
assay.readout: IC50 (µg/mL)

Some solved entries appear below for comparison.
Cc1ccccc1Nc1nc(N2CCOCC2)nc(N2CCN(CCNc3ccnc4cc(Cl)ccc34)CC2)n1    0.0192
Clc1ccc2c(NCCN3CCN(c4nc(NC5CCCCC5)nc(N5CCCCC5)n4)CC3)ccnc2c1    0.00443

1 = O=CN1CCN(c2nc(N3CCOCC3)nc(N3CCN(CCNc4ccnc5cc(Cl)ccc45)CC3)n2)CC1
2 = Cc1ccc(Nc2nc(NC3CCCCC3)nc(N3CCN(CCNc4ccnc5cc(Cl)ccc45)CC3)n2)cc1
3 = CCN1CCN(c2nc(Nc3ccc(C)cc3)nc(N3CCN(CCNc4ccnc5cc(Cl)ccc45)CC3)n2)CC1
4 = Cc1ccc(Nc2nc(Nc3ccc(C)cc3)nc(N3CCN(CCNc4ccnc5cc(Cl)ccc45)CC3)n2)cc1
Please order the records by their reported IC50, lowest number first. To answer, arrange all of the labels according to the requested order.
1, 3, 4, 2
